Property: viability, T/C; scope: individual compounds
- Tested on: 362531-283-R-J2-PDC complex spheroid viability
- PROCEDURE SUMMARY: Anticancer human tumor 362531-283-R-J2-PDC patient-derived colon adenocarcinoma cell line growth inhibition [RAS]
- CONDITION CONTEXT: compound 0.000949 µM; active compounds read low
REPORTED PROPERTY: viability, T/C

INSERT INTO assay_data (compound, result) VALUES
  ('CCn1c(-c2cccnc2C(C)OC)c2c3cc(ccc31)N1CCOC(CC(NC(=O)C(C(C)C)N(C)C(=O)C3(F)CCN(C(=O)C#CC(C)(C)N(C)C)CC3)C(=O)N3CCCC(N3)C(=O)OCC(C)(C)C2)C1 (centres undefined)', '103% [middle of 8 runs]'),
  ('CCc1c2c(nc3ccc(O)cc13)-c1cc3c(c(=O)n1C2)COC(=O)[C@]3(O)CC', '92.4% [middle of 4 runs]'),
  ('CCn1c(-c2cc(N3CCN(C)CC3)cnc2C(C)OC)c2c3cc(ccc31)-c1csc(n1)CC(NC(=O)C1CC1C)C(=O)N1CCCC(N1)C(=O)OCC(C)(C)C2 (centres undefined)', '99% [middle of 8 runs]'),
  ('CC1(C)CCC(Nc2ncc(C(F)(F)F)c(-c3c[nH]c4c(P(C)(C)=O)c(C#N)ccc34)n2)CN1 (centres undefined)', '104% [middle of 4 runs]');

* * *

- Test system: 362531-283-R-J2-PDC complex spheroid viability
- PROCEDURE SUMMARY: Anticancer human tumor 362531-283-R-J2-PDC cell line growth inhibition [RAS];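 further: spheroids exposed to the agents for 7 days before readout; luminescence viability as percent of DMSO vehicle control wells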
- CONDITION CONTEXT: second compound 0.0949 µM; first compound 10 µM; active compounds read low
REPORTED PROPERTY: viability, T/C (%)

INSERT INTO measurements (compound, numeric_readout) VALUES
  ('CC(C)NCC(C(=O)N1CCN(c2ncnc3c2C(C)CC3O)CC1)c1ccc(Cl)cc1 (stereo not drawn) + CCn1c(-c2cccnc2C(C)OC)c2c3cc(ccc31)N1CCOC(CC(NC(=O)C(C(C)C)N(C)C(=O)C3(F)CCN(C(=O)C#CC(C)(C)N(C)C)CC3)C(=O)N3CCCC(N3)C(=O)OCC(C)(C)C2)C1', 94.3),
  ('NC1c2ccccc2OC12CCN(c1cnc3c(N4CCCc5ncccc54)n[nH]c3n1)CC2 (stereo not drawn) + CCn1c(-c2cccnc2C(C)OC)c2c3cc(ccc31)N1CCOC(CC(NC(=O)C(C(C)C)N(C)C(=O)C3(F)CCN(C(=O)C#CC(C)(C)N(C)C)CC3)C(=O)N3CCCC(N3)C(=O)OCC(C)(C)C2)C1', 42.8),
  ('CC(=O)OC12COC1CC(O)C1(C)C(=O)C(O)C3=C(C)C(OC(=O)C(O)C(NC(=O)OC(C)(C)C)c4ccccc4)CC(O)(C(OC(=O)c4ccccc4)C21)C3(C)C (stereo not drawn) + CCn1c(-c2cccnc2C(C)OC)c2c3cc(ccc31)N1CCOC(CC(NC(=O)C(C(C)C)N(C)C(=O)C3(F)CCN(C(=O)C#CC(C)(C)N(C)C)CC3)C(=O)N3CCCC(N3)C(=O)OCC(C)(C)C2)C1', 31.7);

* * *

- System: 362531-283-R-J2-PDC complex spheroid viability
- PROCEDURE SUMMARY: Anticancer human tumor 362531-283-R-J2-PDC cell line growth inhibition [RAS];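 further: spheroids exposed to the agents for 7 days before readout; luminescence viability as percent of DMSO vehicle control wells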
- CONDITION CONTEXT: second compound 1 µM; first compound 0.0316 µM; active compounds read low
REPORTED PROPERTY: viability, T/C (%)

INSERT INTO results (compound, reported_property, numeric_readout) VALUES
  ('CC(Nc1ccc2c(c1)OCCn1cc(N3C(=O)OCC3C(F)F)nc1-2)C(N)=O (stereo not given) + C=CC(=O)N1CCN(c2nc(OCC3CCCN3C)nc3c(F)c(-c4nc(N)cc(C)c4C(F)(F)F)c(Cl)cc23)C(C)C1', 'viability, T/C', 94.8),
  ('O=C(c1ccc(F)c(F)c1Nc1ccc(I)cc1F)N1CC(O)([C@@H]2CCCCN2)C1 + C#Cc1c(F)ccc2cc(O)cc(-c3ncc4c(N5CC6CCC(C5)N6)nc(OCC56CCCN5CC(F)C6)nc4c3F)c12', 'viability, T/C', 78.2),
  ('NC1c2ccccc2OC12CCN(c1cnc3c(N4CCCc5ncccc54)n[nH]c3n1)CC2 (stereo not given) + C=CC(=O)N1CCN(c2nc(OCC3CCCN3C)nc3c(F)c(-c4nc(N)cc(C)c4C(F)(F)F)c(Cl)cc23)C(C)C1', 'viability, T/C', 91),
  ('CC1(O)CCCC1n1c(=O)c(C(F)F)cc2cnc(NC3CCN(S(C)(=O)=O)CC3)nc21 (stereo not given) + C=CC(=O)N1CCN(c2nc(OCC3CCCN3C)nc3c(F)c(-c4nc(N)cc(C)c4C(F)(F)F)c(Cl)cc23)C(C)C1', 'viability, T/C', 98.6),
  ('Nc1ccn(C2OC(CO)C(O)C2(F)F)c(=O)n1 (stereo not given) + C#Cc1c(F)ccc2cc(O)cc(-c3ncc4c(N5CC6CCC(C5)N6)nc(OCC56CCCN5CC(F)C6)nc4c3F)c12', 'viability, T/C', 66.8),
  ('CCC(CC)c1cc(NC2CCC(N)C2)n2nccc2n1 (stereo not given) + C=CC(=O)N1CCN(c2nc(OCC3CCCN3C)nc3c(F)c(-c4nc(N)cc(C)c4C(F)(F)F)c(Cl)cc23)C(C)C1', 'viability, T/C', 107),
  ('Cc1nc(N2CCC3(CC2)COC(C)C3N)c(CO)nc1Sc1ccnc(N)c1Cl (stereo not given) + C#Cc1c(F)ccc2cc(O)cc(-c3ncc4c(N5CC6CCC(C5)N6)nc(OCC56CCCN5CC(F)C6)nc4c3F)c12', 'viability, T/C', 81),
  ('CC(=O)OC12COC1CC(O)C1(C)C(=O)C(O)C3=C(C)C(OC(=O)C(O)C(NC(=O)OC(C)(C)C)c4ccccc4)CC(O)(C(OC(=O)c4ccccc4)C21)C3(C)C (stereo not given) + C#Cc1c(F)ccc2cc(O)cc(-c3ncc4c(N5CC6CCC(C5)N6)nc(OCC56CCCN5CC(F)C6)nc4c3F)c12', 'viability, T/C', 81.2),
  ('CC1(O)CCCC1n1c(=O)c(C(F)F)cc2cnc(NC3CCN(S(C)(=O)=O)CC3)nc21 (stereo not given) + C#Cc1c(F)ccc2cc(O)cc(-c3ncc4c(N5CC6CCC(C5)N6)nc(OCC56CCCN5CC(F)C6)nc4c3F)c12', 'viability, T/C', 82.8),
  ('Nc1ccn(C2OC(CO)C(O)C2(F)F)c(=O)n1 (stereo not given) + C=CC(=O)N1CCN(c2nc(OCC3CCCN3C)nc3c(F)c(-c4nc(N)cc(C)c4C(F)(F)F)c(Cl)cc23)C(C)C1', 'viability, T/C', 78.9);

* * *

- System: 362531-283-R-J2-PDC complex spheroid viability
- PROCEDURE SUMMARY: Anticancer human tumor 362531-283-R-J2-PDC cell line growth inhibition [RAS]; active = viability on the fitted dose curve at most 10% of control; inactive = the rest;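 further: spheroids exposed to the agents for 7 days before readout; luminescence viability as percent of DMSO vehicle control wells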
- CONDITION CONTEXT: second compound 0.1 µM; first compound 10 µM
Possible outcomes: true for active, false for inactive

INSERT INTO assay_data (compound, label_class) VALUES
  ('NC1c2ccccc2OC12CCN(c1cnc3c(N4CCCc5ncccc54)n[nH]c3n1)CC2 (stereo not given) + C#Cc1c(F)ccc2cc(O)cc(-c3ncc4c(N5CC6CCC(C5)N6)nc(OCC56CCCN5CC(F)C6)nc4c3F)c12', 'true'),
  ('CCC(CC)c1cc(NC2CCC(N)C2)n2nccc2n1 (stereo not given) + C#Cc1c(F)ccc2cc(O)cc(-c3ncc4c(N5CC6CCC(C5)N6)nc(OCC56CCCN5CC(F)C6)nc4c3F)c12', 'true'),
  ('Cc1nc(N2CCC3(CC2)COC(C)C3N)c(CO)nc1Sc1ccnc(N)c1Cl (stereo not given) + C=CC(=O)N1CCN(c2nc(OCC3CCCN3C)nc3c(F)c(-c4nc(N)cc(C)c4C(F)(F)F)c(Cl)cc23)C(C)C1', 'false'),
  ('CC1(O)CCCC1n1c(=O)c(C(F)F)cc2cnc(NC3CCN(S(C)(=O)=O)CC3)nc21 (stereo not given) + C=CC(=O)N1CCN(c2nc(OCC3CCCN3C)nc3c(F)c(-c4nc(N)cc(C)c4C(F)(F)F)c(Cl)cc23)C(C)C1', 'false'),
  ('Cc1nc(N2CCC3(CC2)COC(C)C3N)c(CO)nc1Sc1ccnc(N)c1Cl (stereo not given) + C#Cc1c(F)ccc2cc(O)cc(-c3ncc4c(N5CC6CCC(C5)N6)nc(OCC56CCCN5CC(F)C6)nc4c3F)c12', 'true'),
  ('CC(=O)OC12COC1CC(O)C1(C)C(=O)C(O)C3=C(C)C(OC(=O)C(O)C(NC(=O)OC(C)(C)C)c4ccccc4)CC(O)(C(OC(=O)c4ccccc4)C21)C3(C)C (stereo not given) + C=CC(=O)N1CCN(c2nc(OCC3CCCN3C)nc3c(F)c(-c4nc(N)cc(C)c4C(F)(F)F)c(Cl)cc23)C(C)C1', 'false'),
  ('CCC(CC)c1cc(NC2CCC(N)C2)n2nccc2n1 (stereo not given) + C=CC(=O)N1CCN(c2nc(OCC3CCCN3C)nc3c(F)c(-c4nc(N)cc(C)c4C(F)(F)F)c(Cl)cc23)C(C)C1', 'true'),
  ('C[C@@H](NC(=O)c1ncnc(N)c1Cl)c1ncc(C(=O)Nc2cc(C(F)(F)F)c(Cl)cn2)s1 + C#Cc1c(F)ccc2cc(O)cc(-c3ncc4c(N5CC6CCC(C5)N6)nc(OCC56CCCN5CC(F)C6)nc4c3F)c12', 'false'),
  ('CC(Nc1ccc2c(c1)OCCn1cc(N3C(=O)OCC3C(F)F)nc1-2)C(N)=O (stereo not given) + C#Cc1c(F)ccc2cc(O)cc(-c3ncc4c(N5CC6CCC(C5)N6)nc(OCC56CCCN5CC(F)C6)nc4c3F)c12', 'false'),
  ('CC(C)NCC(C(=O)N1CCN(c2ncnc3c2C(C)CC3O)CC1)c1ccc(Cl)cc1 (stereo not given) + C#Cc1c(F)ccc2cc(O)cc(-c3ncc4c(N5CC6CCC(C5)N6)nc(OCC56CCCN5CC(F)C6)nc4c3F)c12', 'false');
